target: Tyrosyl-DNA phosphodiesterase 2 (Homo sapiens, UniProt O95551); test: Inhibition of recombinant human TDP2 using TY18 (alpha-[32P]-cordycepin-3'-labeled) as substrate after 15 mins by PAGE analysis
Sequence (O95551 whole entry): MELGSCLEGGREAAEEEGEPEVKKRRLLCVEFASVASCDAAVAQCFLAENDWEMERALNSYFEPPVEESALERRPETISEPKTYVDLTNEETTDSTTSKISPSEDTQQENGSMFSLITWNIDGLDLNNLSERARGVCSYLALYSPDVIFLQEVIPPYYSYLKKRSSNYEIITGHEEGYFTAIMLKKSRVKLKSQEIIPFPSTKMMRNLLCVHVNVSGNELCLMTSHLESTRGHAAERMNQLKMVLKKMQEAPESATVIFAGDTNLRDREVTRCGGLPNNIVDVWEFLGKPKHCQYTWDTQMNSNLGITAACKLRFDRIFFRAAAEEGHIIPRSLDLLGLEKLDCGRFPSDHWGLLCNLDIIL
measuredMetric: IC50

[[record]]
molecule = "Cc1oc2c(c1C(=O)Oc1ccc3c(c1)OCO3)C(=O)c1ncccc1C2=O"
obsvalue = "> 111 µM"

[[record]]
molecule = "CCOC(=O)c1c(C)[nH]c2c1C(=O)c1cccnc1C2=O"
obsvalue = "> 111 µM"

[[record]]
molecule = "Cc1oc2c(c1C(=O)OC[C@@H](O)CO)C(=O)c1ncccc1C2=O"
obsvalue = "12 µM"

[[record]]
molecule = "Cc1oc2c(c1C(=O)Nc1cccc(Cl)c1)C(=O)c1ncccc1C2=O"
obsvalue = "> 111 µM"

[[record]]
molecule = "Cc1oc2c(c1C(=O)Oc1ccc(C(=O)c3ccccc3)cc1)C(=O)c1ncccc1C2=O"
obsvalue = "> 111 µM"

[[record]]
molecule = "Cc1oc2c(c1C(=O)Oc1ccccc1NC(=O)OC(C)(C)C)C(=O)c1ncccc1C2=O"
obsvalue = "36 µM"

[[record]]
molecule = "Cc1oc2c(c1C(=O)OCC(F)(F)F)C(=O)c1ncccc1C2=O"
obsvalue = "28 µM"

[[record]]
molecule = "Cc1oc2c(c1C(=O)Oc1ccc(S(C)(=O)=O)cc1)C(=O)c1ncccc1C2=O"
obsvalue = "14 µM"

[[record]]
molecule = "Cc1oc2c(c1C(=O)Oc1cccnc1)C(=O)c1ncccc1C2=O"
obsvalue = "8.8 µM"

[[record]]
molecule = "COP(=O)(OC)c1c(C)oc2c1C(=O)c1ncccc1C2=O"
obsvalue = "> 111 µM"

[[record]]
molecule = "Cc1oc2c(c1C(=O)Oc1ccc(N)cc1)C(=O)c1ncccc1C2=O"
obsvalue = "19 µM"

[[record]]
molecule = "Cc1oc2c(c1C(=O)OCCc1cn(CCCO)nn1)C(=O)c1ncccc1C2=O"
obsvalue = "66 µM"

[[record]]
molecule = "Cc1oc2c(c1C(=O)Nc1ccccc1O)C(=O)c1ncccc1C2=O"
obsvalue = "> 111 µM"

[[record]]
molecule = "CC(=O)c1c(C)oc2c1C(=O)c1cccnc1C2=O"
obsvalue = "> 111 µM"

[[record]]
molecule = "Cc1oc2c(c1C(=O)Oc1ccccc1)C(=O)c1ncccc1C2=O"
obsvalue = "18 µM"

[[record]]
molecule = "Cc1oc2c(c1C(=O)Oc1ccccc1Cl)C(=O)c1ncccc1C2=O"
obsvalue = "10 µM"

[[record]]
molecule = "Cc1oc2c(c1C(=O)OCC(O)CO)C(=O)c1ncccc1C2=O (stereo not drawn)"
obsvalue = "20 µM"

[[record]]
molecule = "CC(=O)N1CCN(c2ccc(OC(=O)c3c(C)oc4c3C(=O)c3ncccc3C4=O)cc2)CC1"
obsvalue = "37 µM"

[[record]]
molecule = "COP(=O)(OC)Oc1ccc(OC(=O)c2c(C)oc3c2C(=O)c2ncccc2C3=O)cc1"
obsvalue = "31 µM"

[[record]]
molecule = "CCOC(=O)c1noc2c1C(=O)c1cccnc1C2=O"
obsvalue = "1.9 µM"

[[record]]
molecule = "Cc1oc2c(c1C(=O)OCCC#N)C(=O)c1ncccc1C2=O"
obsvalue = "14 µM"

[[record]]
molecule = "Cc1oc2c(c1C(=O)Oc1ccc(C#N)cc1)C(=O)c1ncccc1C2=O"
obsvalue = "15 µM"

[[record]]
molecule = "CCOC(=O)c1noc2c1C(=O)c1ncccc1C2=O"
obsvalue = "3.3 µM"

[[record]]
molecule = "COC(=O)c1c(C)oc2c1C(=O)c1ncccc1C2=O"
obsvalue = "26 µM"

[[record]]
molecule = "CCOC(=O)c1n[nH]c2c1C(=O)c1ncccc1C2=O"
obsvalue = "> 111 µM"

[[record]]
molecule = "COP(=O)(CCOC(=O)c1c(C)oc2c1C(=O)c1ncccc1C2=O)OC"
obsvalue = "9 µM"

[[record]]
molecule = "Cc1oc2c(c1C(=O)Oc1ccc(Cl)cc1)C(=O)c1ncccc1C2=O"
obsvalue = "11 µM"

[[record]]
molecule = "Cc1oc2c(c1C(=O)Oc1ccccc1O)C(=O)c1cccnc1C2=O"
obsvalue = "29 µM"

[[record]]
molecule = "Cc1oc2c(c1C(=O)Oc1cccc(NC(=O)OC(C)(C)C)c1)C(=O)c1ncccc1C2=O"
obsvalue = "31 µM"

[[record]]
molecule = "COC(=O)c1sccc1OC(=O)c1c(C)oc2c1C(=O)c1ncccc1C2=O"
obsvalue = "22 µM"

[[record]]
molecule = "Cc1oc2c(c1C(=O)Oc1cccc(Cl)c1)C(=O)c1ncccc1C2=O"
obsvalue = "14 µM"

[[record]]
molecule = "Cc1oc2c(c1C(=O)Oc1cccc(O)c1)C(=O)c1ncccc1C2=O"
obsvalue = "29 µM"

[[record]]
molecule = "C=CC(=O)Nc1cccc(OC(=O)c2c(C)oc3c2C(=O)c2ncccc2C3=O)c1"
obsvalue = "71 µM"

[[record]]
molecule = "C#CCCOC(=O)c1c(C)oc2c1C(=O)c1ncccc1C2=O"
obsvalue = "22 µM"

[[record]]
molecule = "Cc1oc2c(c1C(=O)Nc1cccc(Cl)c1)C(=O)c1cccnc1C2=O"
obsvalue = "> 111 µM"

[[record]]
molecule = "Cc1cnc2c(c1)C(=O)c1occ(C)c1C2=O"
obsvalue = "> 111 µM"

[[record]]
molecule = "Cc1oc2c(c1C(=O)Oc1ccc3ccccc3c1)C(=O)c1ncccc1C2=O"
obsvalue = "> 111 µM"

[[record]]
molecule = "Cc1oc2c(c1C(=O)OCCCCO)C(=O)c1ncccc1C2=O"
obsvalue = "26 µM"

[[record]]
molecule = "Cc1oc2c(c1C(=O)OCCCO)C(=O)c1ncccc1C2=O"
obsvalue = "17 µM"

[[record]]
molecule = "CC(=O)c1c(C)oc2c1C(=O)c1ncccc1C2=O"
obsvalue = "35 µM"

[[record]]
molecule = "C=CC(=O)Nc1ccc(OC(=O)c2c(C)oc3c2C(=O)c2ncccc2C3=O)cc1"
obsvalue = "68 µM"

